# measurement protocol: Cytotoxicity, CellTiter 96 Aqueous (MTS) cell proliferation assay
# Type: cell-based, human
# details: human, THP-1 cells, 24 h incubation
measured endpoint: IC50 at 24 h (µM)
Answers are plain numbers, in µM.

May I ask what IC50 at 24 h has been recorded for CCC(C)(C)C(=O)O[C@H]1C[C@@H](C)C=C2C=C[C@H](C)[C@H](CC[C@@H]3C[C@@H](O)CC(=O)O3)[C@H]21 [simvastatin, reference compound] ?
14.1

The measured values listed here are drawn from paper PMC5370276.
